- systemTested: T1, human BCMA protein (human, UniProt Q02223 1-54, limits assumed)
- T1 sequence: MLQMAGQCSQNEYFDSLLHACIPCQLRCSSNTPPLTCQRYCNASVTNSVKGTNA
- measurementNotes: affinity to human BCMA protein, method not stated
assayEndpoint: pKd
Lab note — pKd values are minus log10 of concentrations in M.

Below are worked cases with known answers.
{"columns": ["binder", "pKd"],
 "data": [
  ["BCMA targeting trispecific protein 01F02 (other, trispecific; not shown: anti-albumin domain, anti-CD3 domain and the linkers of the trispecific; the C-terminal His6 that follows them is left out) VHH: EVQLVESGGGLVQPGRSLTLSCAASTNIFSHSPMGWYRQAPGKQRELVAAIHGTSTLYADSVKGRFTISRDNAKNSIYLQMNSLRPEDTALYYCNKVPWGRYHPRNVYWGQGTQVTVSS", 7.38],
  ["BCMA targeting trispecific protein 02B01 (other, not shown: large carriers; small tags and cut ends, trispecific) VHH: EVQLVESGGGLVQPGRSLTLSCAASTNIFSNSPMGWYRQAPGKQRELVAAIHGRSTLYADSVKGRFTISRDNAKNSIYLQMNSLRPEDTALYYCNKVPWGDYHPRNVMWGQGTQVTVSS", 7.67],
  ["BCMA targeting trispecific protein 01F03 (other, trispecific; not shown: the C-terminal 6xHis tag follows those domains and is left out) VHH: EVQLVESGGGLVQPGRSLTLSCAASTNIFSESPMGWYRQAPGKQRELVAAIHGNSTLYADSVKGRFTISRDNAKNSIYLQMNSLRPEDTALYYCNKVPWGTYHPRNVYWGQGTQVTVSS", 7.82]
]}

Form field pKd, entry BCMA targeting trispecific protein 01C07 (other, not shown: large carriers; small tags and cut ends, trispecific) VHH: EVQLVESGGGLVQPGRSLTLSCAASTNIFSIYPMGWYRQAPGKQRELVAAIHGFSTYYADSVKGRFTISRDNAKNSIYLQMNSLRPEDTALYYCNKVPWGSYHPRNVYWGQGTQVTVSS : 7.70
